Target: UniProt:O00411
Sequence (O00411 42-1230): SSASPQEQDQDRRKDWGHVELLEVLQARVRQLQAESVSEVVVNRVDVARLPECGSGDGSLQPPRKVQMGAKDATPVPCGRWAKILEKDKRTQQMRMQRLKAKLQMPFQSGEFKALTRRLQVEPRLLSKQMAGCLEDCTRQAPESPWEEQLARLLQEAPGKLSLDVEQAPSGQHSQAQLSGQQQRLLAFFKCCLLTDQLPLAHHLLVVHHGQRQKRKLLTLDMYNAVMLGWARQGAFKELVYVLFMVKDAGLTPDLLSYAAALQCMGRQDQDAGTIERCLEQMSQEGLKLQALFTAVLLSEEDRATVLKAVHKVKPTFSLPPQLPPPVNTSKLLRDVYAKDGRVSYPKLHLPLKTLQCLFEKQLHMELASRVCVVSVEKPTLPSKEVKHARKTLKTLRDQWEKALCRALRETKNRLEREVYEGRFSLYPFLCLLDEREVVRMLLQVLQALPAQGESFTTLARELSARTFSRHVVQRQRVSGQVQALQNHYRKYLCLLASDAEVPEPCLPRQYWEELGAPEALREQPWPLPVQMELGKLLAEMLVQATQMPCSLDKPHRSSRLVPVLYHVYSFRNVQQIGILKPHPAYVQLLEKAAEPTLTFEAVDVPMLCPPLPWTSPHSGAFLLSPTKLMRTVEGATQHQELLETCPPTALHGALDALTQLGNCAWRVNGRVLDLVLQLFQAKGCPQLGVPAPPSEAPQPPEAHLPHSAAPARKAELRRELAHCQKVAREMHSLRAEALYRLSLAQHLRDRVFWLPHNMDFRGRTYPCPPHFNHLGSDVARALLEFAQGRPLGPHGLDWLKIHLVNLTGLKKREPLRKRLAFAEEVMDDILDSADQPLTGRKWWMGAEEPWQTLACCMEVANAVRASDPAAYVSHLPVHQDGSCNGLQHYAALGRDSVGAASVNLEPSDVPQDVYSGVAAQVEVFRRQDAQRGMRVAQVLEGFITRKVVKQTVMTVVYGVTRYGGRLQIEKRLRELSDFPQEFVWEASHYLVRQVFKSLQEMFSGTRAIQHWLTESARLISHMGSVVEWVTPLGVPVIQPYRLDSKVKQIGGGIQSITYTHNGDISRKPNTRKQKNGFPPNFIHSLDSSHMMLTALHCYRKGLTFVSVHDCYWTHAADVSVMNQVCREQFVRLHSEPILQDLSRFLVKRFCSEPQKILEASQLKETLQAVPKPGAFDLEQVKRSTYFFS
Classes are defined on IC50 with ranges group 1 (below 600 nM), group 2 (600 nM to below 10000 nM), group 3 (10000 nM or more)

| Compound | Assigned class |
| --- | --- |
| Cc1cc(O)cc2oc(=O)cc(-c3ccc(F)cc3)c12 [Example 16] | group 3 |
| COCC(Oc1ccc2c(-c3ccccc3Cl)cc(=O)oc2c1)C(N)=O (single isomer, unassigned) [Example 95] | group 3 |
| CNC(=O)[C@@H](COC)Oc1ccc2c(-c3ccccc3C)cc(=O)oc2c1 [Example 70] | group 2 |
| CCC(COC)Oc1ccc2c(-c3ccccc3C)cc(=O)oc2c1 (single isomer, unassigned) [Example 46] | group 1 |
| CNC(=O)[C@H](COC)Oc1ccc2c(-c3ccccc3C)cc(=O)oc2c1 [Example 69] | group 3 |
| CNC(=O)C(COC)Oc1ccc2c(-c3ccccc3Cl)cc(=O)oc2c1 (single isomer, unassigned) [Example 91] | group 3 |
| CCOCC(Oc1ccc2c(-c3ccccc3C)cc(=O)oc2c1)C(N)=O (centres unmarked) [Example 99] | group 2 |
| COCC(C)Oc1cc(C)c2c(-c3ccccc3C)cc(=O)oc2c1 (single isomer, unassigned) [Example 60] | group 1 |
| Cc1ccccc1-c1cc(=O)oc2cc(O[C@H]3CCN(C)C3)ccc12 [Example 63] | group 3 |
| Cc1ccccc1-c1cc(=O)oc2cc(OCC3CCCCO3)ccc12 (single isomer, unassigned) [Example 39] | group 2 |
| Cc1ccccc1-c1cc(=O)oc2cc(O)ccc12 [Example 01, 7-hydroxy-4-(o-tolyl)-2H-chromen-2-one] | group 2 |
| COCCNC(=O)C(COC)Oc1ccc2c(-c3ccccc3C)cc(=O)oc2c1 (single isomer, unassigned) [Example 87] | group 3 |
| Cc1ccccc1-c1cc(=O)oc2cc(OCC3CCOCC3)ccc12 [Example 29] | group 2 |
| CCCOc1ccc2c(-c3csc(C)c3C)cc(=O)oc2c1 [Example 51] | group 1 |
| CCCOc1ccc2c(-c3ccc(F)cc3Cl)cc(=O)oc2c1 [Example 31] | group 1 |
| CNC(=O)C(CO)Oc1ccc2c(-c3ccccc3C)cc(=O)oc2c1 (single isomer, unassigned) [Example 98] | group 3 |
| COC[C@H](Oc1ccc2c(-c3ccccc3C)cc(=O)oc2c1)C(N)=O [Example 67] | group 3 |
| COCC(Oc1ccc2c(-c3ccccc3C)cc(=O)oc2c1)C(=O)NCC(F)(F)F (single isomer, unassigned) [Example 82] | group 2 |
| COC[C@@H](Oc1ccc2c(-c3ccccc3C)cc(=O)oc2c1)C(=O)O [Example 101] | group 1 |
| COC[C@H](Oc1ccc2c(-c3ccccc3C)cc(=O)oc2c1)C(=O)O [Example 104] | group 2 |
| CCC(COC)Oc1ccc2c(-c3ccccc3C)cc(=O)oc2c1 (single isomer, unassigned) [Example 45] | group 1 |
| CC(=O)N1CC[C@@H](Oc2ccc3c(-c4ccccc4C)cc(=O)oc3c2)C1 [Example 62] | group 3 |
| COCC(Oc1ccc2c(-c3ccc(F)cc3Cl)cc(=O)oc2c1)C(=O)N(C)C (single isomer, unassigned) [Example 86] | group 3 |
| Cc1ccccc1-c1cc(=O)oc2cc(OCC(N)=O)ccc12 [Example 108] | group 1 |
| CCCOc1ccc2c(-c3ncccc3C)cc(=O)oc2c1 [Example 64] | group 3 |
| COCC(Oc1ccc2c(-c3ccccc3Cl)cc(=O)oc2c1)C(=O)N(C)C (single isomer, unassigned) [Example 94] | group 1 |
| CNC(=O)C(CO)Oc1ccc2c(-c3ccccc3C)cc(=O)oc2c1 (single isomer, unassigned) [Example 97] | group 2 |
| COCC(C)Oc1ccc2c(-c3ccccc3C)cc(=O)oc2c1 (single isomer, unassigned) [Example 26] | group 1 |
| COCC(Oc1ccc2c(-c3ccccc3Cl)cc(=O)oc2c1)C(=O)O (centres unmarked) [Example 84] | group 2 |
| CCCOc1ccc2c(-c3cccc4c3OCCO4)cc(=O)oc2c1 [Example 36] | group 3 |
